# assay procedure: basal HepG2 mitochondrial membrane potential changes, profiling panel, cell-based, JC-1 fluorescence, 24 h, 100 nL compound (AID 1167); also: test concentration not given here
# recorded conditions: higher = more signal
measured parameter: z-score

# map each compound to its z-score
1. C[N+](C)(C)CCCCCCNC(=O)[C@H]1C[C@H]2C(=O)NCC(=O)N2[C@H]1c1cccc(OCCO)c1
2. CC1(C)OC[C@@]23C=C(Br)[C@@H](C[C@H]12)[C@@]1(CO1)C3=O
3. COC(=O)[C@@]1(Cc2ccc(F)cc2)[C@H]2c3cc(C(=O)N(C)C)n(CCO)c3C[C@H]2CN1C(=O)c1ccccc1

output:
[-1.52, -0.973, -2.03]

# map each compound to its z-score
1. COCCOC(=O)N1C(=O)[C@@]2(c3cc(C#CCC(C(=O)OC)C(=O)OC)ccc31)[C@H](C(=O)N1CCCCCCC1)[C@H]1C(=O)O[C@H](c3ccccc3)[C@H](c3ccccc3)N1[C@@H]2c1ccccc1OCCO
2. Cc1ccc(S[C@]2(C(=O)NC3CC3)CC(=O)N(Cc3cc(C(F)(F)F)cc(C(F)(F)F)c3)[C@@H]2c2ccc(CO)cc2I)cc1
3. O=C1C2C=CC(C(O)c3cccs3)N(Nc3ccccc3)C2C(=O)N1c1ccccc1 (centres undefined)
4. C=C(CCCC)/C(=C/C[C@H](OC(C)=O)c1cccc(OCCO)c1)c1cc(C(=O)OC)ccc1OC
5. CCCCN1CC=CC23O[C@@H]4C=CCOC(=O)[C@@H]4[C@H]2C(=O)N(C(CO)C(C)C)[C@@H]3C1=O (some centres undefined)
6. C=C(CCCC)C(=O)CC[C@H](OC(C)=O)c1ccccc1OCCO
7. COCCOC(=O)N1C(=O)[C@@]2(c3cc(C#CC4(O)CCCCCC4)ccc31)[C@H](C(=O)N1CCc3cc(OC)c(OC)cc3C1)[C@H]1C(=O)O[C@H](c3ccccc3)[C@H](c3ccccc3)N1[C@@H]2c1ccc(O)cc1

output:
1: -0.747; 2: -0.9; 3: -1.72; 4: 2.19; 5: -0.528; 6: 0.103; 7: -0.145

###

# assay procedure: inhibitors of hydroxyurea-induced Chk1 phosphorylation, primary screen, imaging, HeLa, phospho-Chk1 nuclear intensity (AID 1187); also: test concentration not given here
# recorded conditions: hydroxyurea-induced phospho-Chk1 immunofluorescence imaging, higher = more signal
z-score vs 0.4: at or above is t, below is f.

The following compounds have reported results that may help.
{"compound": "C=C(CCCC)C(=O)CC[C@H](OC(C)=O)c1ccccc1OCCO", "classification": "f"}
{"compound": "[N-]=[N+]=NCc1ccccc1C[C@]1(C(=O)N2CCOCC2)N=C(c2ccc(OCCCO)cc2)O[C@H]1c1ccccc1CN=[N+]=[N-]", "classification": "f"}
{"compound": "Cc1ccccc1C(O)C1C=CC2C(=O)N(c3ccccc3)C(=O)C2N1Nc1ccccc1F (stereo not drawn)", "classification": "t"}
{"compound": "C=C(CCCC)/C(=C/C[C@H](OC(C)=O)c1cccc(OCCO)c1)c1cc(C(=O)OC)ccc1OC", "classification": "f"}
{"compound": "COc1ccc(C#Cc2ccc3c(c2)[C@]2(C(=O)N3)[C@H](C(=O)Nc3nc4ccccc4s3)[C@H]3C(=O)O[C@H](c4ccccc4)[C@H](c4ccccc4)N3[C@@H]2c2ccc(OCCO)cc2)cc1", "classification": "f"}

input: Hello, I need to know if COCC(=C=CC[C@@H](O)c1ccc(OCCO)cc1)C[C@@H](O)COCc1ccccc1 has measured z-score not below 0.4. Thanks!
output: t

input: Hello, I need to know if COC(=O)C(CC#Cc1ccc2c(c1)[C@]1(C(=O)N2)[C@H](c2ccc(O)cc2)N2[C@H](c3ccccc3)[C@H](c3ccccc3)OC(=O)[C@H]2[C@@H]1C(=O)N1CCc2cc(OC)c(OC)cc2C1)C(=O)OC has measured z-score not below 0.4. Thanks!
output: f

input: Hello, I need to know if N[C@@H](Cc1ccccc1)Cn1cc(C2(O)CCCCC2)nn1 has measured z-score not below 0.4. Thanks!
output: t

Each recorded value in this set is attributed to PubChem BioAssay.
